Catalogue of molecules with associated composite z-score
- PROCEDURE_DETAILS: small-molecule microarray binders of probe aNog, primary screen, biochemical, biotinylated probe, 635/667 nm fluorescence (AID 1115);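 further: probe is biotinylated aNog protein used at 0.15 µg/mL for 1 h at 4 C; z-score combines 667 nm fluorescence of each spot with its signal to noise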
- TEST_PARAMETERS: higher = more signal
Write the value as a bare number.

Examples from the recorded data:
{"MOLECULE": "Cc1ccc(S[C@]2(C(=O)NC3CC3)CC(=O)N(C3Cc4ccccc4C3)[C@@H]2c2ccc(CO)cc2)cc1", "NUMBER": 0.354}
{"MOLECULE": "COc1ccc(CCNC(=O)[C@@H]2c3ccccc3C(=O)N(C3Cc4ccccc4C3)[C@H]2c2ccc(CO)cc2)cc1", "NUMBER": -0.417}
{"MOLECULE": "[N-]=[N+]=Nc1ccccc1C[C@]1(C(=O)NCC(O)CO)N=C(c2ccc(OCCCO)cc2)O[C@H]1c1ccccc1N=[N+]=[N-] (stereo partly drawn)", "NUMBER": -0.0592}
{"MOLECULE": "C=CCOC(=O)[C@H]1[C@@H]2C(=O)O[C@@H](c3ccccc3)[C@@H](c3ccccc3)N2[C@@H](c2ccc(OCCOC(=O)[C@@H]3C[C@@H]4C(=O)N5CCC[C@H]5C(=O)N4[C@@H]3c3cccc(OCCO)c3)cc2)[C@]12C(=O)Nc1ccccc12", "NUMBER": -0.378}
{"MOLECULE": "C=CCOC(=O)[C@H]1[C@@H]2C(=O)O[C@@H](c3ccccc3)[C@@H](c3ccccc3)N2[C@@H](c2ccc(OCCOC(=O)[C@@H]3C[C@@H]4C(=O)N[C@@H](CCCC[N+](C)(C)C)C(=O)N4[C@@H]3c3ccc(O)cc3)cc2)[C@]12C(=O)Nc1ccccc12", "NUMBER": -0.13}

Provide one value: measured composite z-score of CN1C(=O)C2C=CC(C(O)C3=C[C@H]4C[C@@H](C3)C4(C)C)N(Nc3ccccc3)C2C1=O (stereo partly drawn)
0.612

Provide one value: measured composite z-score of "C[N+](C)(C)CCCCNC(=O)[C@H]1C[C@H]2C(=O)N[C@@H](Cc3ccccc3)C(=O)N2[C@H]1c1ccc(O)cc1"
0.0209

Provide one value: measured composite z-score of "NC(=O)[C@@H]1[C@H]2C(=O)O[C@H](c3ccccc3)[C@H](c3ccccc3)N2[C@H](c2ccc(O)cc2)[C@@]12C(=O)Nc1ccc(C#CC3(O)CCCCCC3)cc12"
0.179

* * *

Catalogue of compounds with associated composite z-score
- MEASURED_ON: Streptavidin (Streptomyces avidinii) (UniProt P22629)
- Sequence (P22629 whole entry, looked up): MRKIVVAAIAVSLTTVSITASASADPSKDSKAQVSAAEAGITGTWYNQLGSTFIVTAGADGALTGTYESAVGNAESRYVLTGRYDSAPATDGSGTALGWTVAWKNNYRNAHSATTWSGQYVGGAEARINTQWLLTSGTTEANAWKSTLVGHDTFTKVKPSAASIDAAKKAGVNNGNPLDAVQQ
- PROCEDURE_DETAILS: streptavidin binders on small-molecule microarray, primary screen, artefact control for SMM compound annotation, biophysical, 635/667 nm fluorescence (AID 1147);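 further: signal reflects streptavidin binding to arrayed compounds as a control protein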
- TEST_PARAMETERS: streptavidin binding, higher = more signal
Write the value as a bare number.

Examples from the recorded data:
{"COMPOUND": "CN1C(=O)C2C=CC(C(O)c3ccccc3)N(Nc3ccccc3)C2C1=O (centres undefined)", "ASSAY_ENDPOINT": "composite z-score", "NUMBER": -0.0782}
{"COMPOUND": "O=C1NC(=O)C2C1C=CC(C(O)Cc1ccccc1)N2Nc1ccc(Cl)cc1Cl (centres undefined)", "ASSAY_ENDPOINT": "composite z-score", "NUMBER": 0.889}
{"COMPOUND": "COC(=O)C(CC#Cc1ccc2c(c1)[C@]1(C(=O)N2)[C@H](C(=O)O)[C@H]2C(=O)O[C@H](c3ccccc3)[C@H](c3ccccc3)N2[C@@H]1c1ccc(O)cc1)C(=O)OC", "ASSAY_ENDPOINT": "composite z-score", "NUMBER": -0.641}

Next item in the queue.
Provide one value: measured composite z-score of COc1ccc(C(O)C2C=CC3C(=O)NC(=O)C3N2Nc2ccccn2)c2ccccc12 (centres undefined)
-0.0105

* * *

- PROCEDURE_DETAILS: osmotic lysis modulators in infected erythrocytes, primary screen, PSAC antagonist project, cell-based, P. falciparum Indochina, OD700, 3 h (AID 1156)
- TEST_PARAMETERS: higher = more signal, called active from +8 up or from −8 down
ASSAY_ENDPOINT: z-score
Write the value as a bare number.

Examples from the recorded data:
{"COMPOUND": "COc1ccc([Si](C)(C)[C@@H]2[C@@H](CC(=O)N3Cc4ccccc4C[C@H]3CO)O[C@]3(C(=O)N(C)c4c(Br)cc(C)cc43)[C@H]2C)cc1", "z-score": 0.392}
{"COMPOUND": "COCCCNC(=O)[C@@]1(Cc2ccccc2N=[N+]=[N-])N=C(c2ccc(OCCCO)cc2)O[C@H]1c1ccccc1N=[N+]=[N-]", "z-score": 2.41}
{"COMPOUND": "CN(C)CCCC[C@@H]1NC(=O)[C@H]2C[C@@H](C(=O)NCCCCCNC(=O)CS)[C@@H](c3cccc(OCCO)c3)N2C1=O", "z-score": -0.744}
{"COMPOUND": "COc1ccc(CCNC(=O)[C@@]2(Sc3ccc(C)cc3)CC(=O)N(C3CCCCC3)[C@@H]2c2ccc(CO)cc2I)cc1", "z-score": -0.325}
{"COMPOUND": "CC(=O)NCCCC[C@@H]1NC(=O)[C@@H]2C[C@H](C(=O)NCCCCCCNC(=O)CS)[C@H](c3cccc(OCCO)c3)N2C1=O", "z-score": 0.0299}

Provide one value: measured z-score of "CCOC(=O)C[C@H]1[C@H](OC(=O)Cc2ccc3c(c2)OCO3)[C@@H](NC(=O)c2ccc(-c3ccccc3)cc2)c2cc(OCCCO)ccc2N1C(=O)c1ccc2ccccc2n1"
-0.352

Provide one value: measured z-score of C=C(C)C1C(=C)CN([C@H](CO)c2ccccc2)C1=O (stereo not given in full)
0.711

Provide one value: measured z-score of "C[C@@H]1ON(c2cccc(C(=O)OC(C)(C)C)c2)[C@H](c2ccc(Br)cc2)[C@H]1C(=O)N1C(=O)OC[C@H]1Cc1ccccc1"
-0.611

* * *

- MEASURED_ON: Carbonic anhydrase 2 (Homo sapiens)
- PROCEDURE_DETAILS: CAII small-molecule binders, profiling panel, biochemical, small-molecule microarray, Alexa647-labelled CAII (AID 1122)
- TEST_PARAMETERS: CAII-A647 binding fluorescence, higher = more signal
ASSAY_ENDPOINT: composite z-score
Write the value as a bare number.

{"CHEMICAL_STRING": "C=CCNC(=O)[C@H]1[C@@H]2C(=O)O[C@@H](c3ccccc3)[C@@H](c3ccccc3)N2[C@@H](c2ccc(O)cc2)[C@]12C(=O)N(C(=O)OCCOC)c1ccc(C#CCNC(N)=O)cc12", "MEASURED_ON": "Carbonic anhydrase 2 (Homo sapiens)", "ASSAY_ENDPOINT": "composite z-score", "NUMBER": 0.484}

Provide one value: measured composite z-score of "C=CCOC(=O)[C@H]1[C@@H]2C(=O)O[C@@H](c3ccccc3)[C@@H](c3ccccc3)N2[C@@H](c2ccc(OCCOC(=O)[C@@H]3C[C@@H]4C(=O)N5CCC[C@H]5C(=O)N4[C@@H]3c3cccc(OCCO)c3)cc2)[C@]12C(=O)Nc1ccccc12"
0.192

Provide one value: measured composite z-score of "CC[C@@H]1C=C(C(=O)O)[C@H](c2ccco2)N1S(=O)(=O)c1ccc(C)cc1"
0.689

Provide one value: measured composite z-score of "COC(=O)[C@@]1(Cc2ccc(OC)cc2)[C@H]2c3cc(C(=O)N(C)C)n(CCN4CNCC4=O)c3C[C@H]2CN1C(=O)c1ccccc1"
0.879

Provide one value: measured composite z-score of "COCCOC(=O)N1C(=O)[C@@]2(c3ccccc31)[C@H](c1ccccc1OCCO)N1[C@H](c3ccccc3)[C@H](c3ccccc3)OC(=O)[C@H]1[C@@H]2C(=O)Nc1nc2ccccc2s1"
0.481

Provide one value: measured composite z-score of "COCCOC(=O)N1C(=O)[C@@]2(c3cc(C#CC4=CCCCC4)ccc31)[C@H](C(=O)Nc1nc3ccccc3s1)[C@H]1C(=O)O[C@H](c3ccccc3)[C@H](c3ccccc3)N1[C@@H]2c1ccc(OCCO)cc1"
0.0924

Provide one value: measured composite z-score of "O=C1O[C@@H](c2ccccc2)[C@@H](c2ccccc2)N2[C@@H](c3ccc(OCCO)cc3)[C@]3(C(=O)Nc4ccccc43)[C@@H](C(=O)NC[C@H](O)c3ccccc3)[C@H]12"
0.549

* * *

- MEASURED_ON: Torsin-1A (Homo sapiens) (UniProt O14656)
- Sequence (O14656 whole entry, looked up): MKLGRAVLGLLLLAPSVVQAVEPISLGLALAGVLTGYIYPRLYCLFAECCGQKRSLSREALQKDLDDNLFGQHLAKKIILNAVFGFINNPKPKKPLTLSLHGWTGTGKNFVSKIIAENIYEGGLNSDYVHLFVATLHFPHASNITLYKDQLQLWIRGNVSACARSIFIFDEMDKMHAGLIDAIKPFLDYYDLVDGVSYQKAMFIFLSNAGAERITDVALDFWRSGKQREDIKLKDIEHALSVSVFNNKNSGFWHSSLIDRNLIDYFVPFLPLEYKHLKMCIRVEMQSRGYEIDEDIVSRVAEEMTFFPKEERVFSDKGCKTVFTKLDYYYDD
- PROCEDURE_DETAILS: small-molecule binders of mutant TOR1A in lysate, primary screen, cell lysate, small-molecule microarray, COS7 lysate, 635/667 nm fluorescence (AID 1150);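 further: score pools 667 nm emission and signal to noise measuring lysate protein binding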
- TEST_PARAMETERS: COS7 hTOR1A mutant lysate, 635 nm fluorescence, higher = more signal
ASSAY_ENDPOINT: composite z-score
Write the value as a bare number.

Examples from the recorded data:
{"COMPOUND": "CCOC1=C2C(CN(S(=O)(=O)c3ccc(C)cc3)C2c2ccc(C)cc2)C2C(=O)N(c3ccccc3)C(=O)C2C1 (centres undefined)", "composite z-score": 0.115}
{"COMPOUND": "C=C(C)C1C(=C)CN([C@H](CO)c2ccccc2)C1=O (some centres undefined)", "composite z-score": -0.821}
{"COMPOUND": "CN(C)CCCC[C@@H]1NC(=O)[C@H]2C[C@@H](C(=O)NCCCCCNC(=O)CS)[C@@H](c3cccc(OCCO)c3)N2C1=O", "composite z-score": 0.749}

Next item in the queue.
Provide one value: measured composite z-score of "CCCC=C(CCC)[C@@H](NS(=O)(=O)c1cccs1)c1ccc(C(=O)OC)cc1"
0.647
